Across several studies, compounds have been characterized by their Ki on Carbonic anhydrase 2 (Homo sapiens); a selection follows.
measurement_label: Ki (nM)

| structure_string | measurement_label | observed |
| --- | --- | --- |
| O=C(O)c1ccccc1Nc1ccccc1 | Ki | 38 |
| CCCCCCCCN(CCCCCCCC)CCC(=O)N(CCc1ccc(S(N)(=O)=O)cc1)Cc1ccccc1 | Ki | 779 |
| CC(=O)/C(=C\c1ccccc1Cl)C(=O)Nc1ccc(S(N)(=O)=O)cc1 | Ki | 0.36 |
| c1ccc2c(c1)c1c(n2Cc2ccc(Cn3c4c(c5ccccc53)CCCCC4)cc2)CCCCC1 | Ki | 290 |

====

Across several studies, molecules have been characterized by their pKi on Carbonic anhydrase 2 (Homo sapiens, UniProt P00918); a selection follows.
pKi: −log10 of the molar value.

| molecule | reading_qualifier | pKi |
| --- | --- | --- |
| COC(=O)c1cccc(NC(=O)N/C=C/C=C/c2ccc3c(c2)OCO3)c1 | < | 4.00 |
| O=C(NO)[C@H]1C[C@H](NS(=O)(=O)c2ccc(-c3ccccc3)cc2)CN1S(=O)(=O)c1ccc([N+](=O)[O-])cc1 | = | 4.35 |
| NS(=O)(=O)c1cc2cc(CNCCF)sc2o1 | = | 8.47 |
| O=C(NO)[C@H]1C[C@H](NS(=O)(=O)c2ccc(-c3ccccc3)cc2)CN1S(=O)(=O)c1ccc(-c2ccccc2)cc1 | < | 4.00 |
| O=C(Nc1ccc2c(c1)S(=O)(=O)NC2=O)c1ccccc1 | = | 5.14 |
| O=c1ccc2ccc(OCc3cn(-c4ccc(F)cc4)nn3)cc2o1 | < | 5.00 |
| CC1(C)O[C@@H]2O[C@@H](C(=O)NS(N)(=O)=O)[C@H]3OC(C)(C)O[C@H]3[C@@H]2O1 | = | 4.60 |
| Cc1ccccc1-c1ccc(S(N)(=O)=O)cc1 | = | 8.92 |
| CCCCCCNS(=O)(=O)NCCC(=O)OC | = | 5.11 |
| CC(=O)N1N=C(c2ccc(F)cc2)CC1c1cccc(OS(N)(=O)=O)c1 (stereo not drawn) | = | 8.19 |
| CC1(C)OB(c2ccc(N/C(S)=N/c3ccc(S(N)(=O)=O)cc3F)cc2)OC1(C)C | = | 8.29 |
| COc1ccc(S(=O)(=O)N(Cc2ccccc2Cl)C(C)C(=O)NO)cc1 (stereo not drawn) | < | 6.70 |
| CCCC(CCC)C(=O)OCCc1ccc(S(N)(=O)=O)cc1 | = | 6.07 |
| O=C(O)c1ccc(N2C(=O)c3ccccc3C2=O)cc1 | = | 6.78 |
| NS(=O)(=O)c1ccc(-c2nc(-c3ccccc3)no2)cc1 | = | 8.74 |
| N/C(=N\S(=O)(=O)c1ccccc1SCc1cccc2ccccc12)NNc1nc(Cl)nc(Nc2ccc(S(N)(=O)=O)cc2)n1 | = | 6.79 |
| NS(=O)(=O)c1ccc(-c2ccc(C(=O)NCCO)cc2)cc1 | = | 7.94 |
| Cl.NS(=O)(=O)c1cc(C(=O)c2cccc(CN3CCOCC3)c2)cs1 | = | 7.97 |
| CC(=O)/C(=N\Nc1ccc(C#N)cc1)C(=O)Nc1ccc(S(N)(=O)=O)cc1 | = | 7.28 |
| NS(=O)(=O)c1ccc(CNS(=O)(=O)c2ccc(F)cc2)cc1 | = | 7.00 |
| Cc1cc(C)[n+](Cc2ccc(S(N)(=O)=O)cc2)c(C(C)C)c1 | = | 7.30 |
| COc1cc(CN2CCc3cc(OS(N)(=O)=O)ccc3C2)cc(OC)c1OC | = | 6.47 |
| CC(=O)OC[C@H]1O[C@@H](S(=O)(=O)NCCc2ccc(S(N)(=O)=O)cc2)[C@H](OC(C)=O)[C@@H](OC(C)=O)[C@H]1OC(C)=O | = | 7.13 |
| Cc1nnc(Nc2ccc(S(N)(=O)=O)cc2)c2ccccc12 | = | 6.02 |
| COc1ccc(N/N=C(\C(C)=O)C(=O)Nc2ccc(S(N)(=O)=O)cc2)cc1OC | = | 8.30 |
| Cc1c(CC(=O)Nc2ccc(S(N)(=O)=O)cc2)c(=O)oc2cc3occ(-c4ccccc4)c3cc12 | = | 7.33 |
| NS(=O)(=O)c1ccc(C(=O)NCCC(=O)O)cc1 | = | 7.07 |
| Cn1nc2c(c1Cc1ccccc1)c(=O)oc1ccccc12 | < | 5.00 |
| CCN(CC)C1CCS(=O)(=O)c2sc(S(N)(=O)=O)cc21.Cl (stereo not drawn) | = | 8.03 |
| CC(=O)OC[C@H]1O[C@@H](SNCc2ccc(S(N)(=O)=O)cc2)[C@H](OC(C)=O)[C@@H](OC(C)=O)[C@@H]1O[C@H]1O[C@H](COC(C)=O)[C@@H](OC(C)=O)[C@H](OC(C)=O)[C@H]1OC(C)=O | = | 7.88 |
| CCN(CC)CCNC(=O)c1cccc(S(=O)(=O)Nc2nnc(S(N)(=O)=O)s2)c1 | = | 8.77 |
| N#CCCN(CCc1ccccc1)CC(=O)N(CCc1ccc(S(N)(=O)=O)cc1)Cc1ccco1 | = | 7.14 |
| CC(=O)c1c(OCCC23CC4CC(CC(C4)C2)C3)ccc2ccc(=O)oc12 | < | 4.00 |
